Hello, the source for this data is patent US20230340142A1, in case you need it.

Molecular target: T1, human PD-L1 (human, UniProt Q9NZQ7 19-238, limits assumed)
T1 construct: also called hPD-L1
T1 sequence (Q9NZQ7 19-238 limits assumed): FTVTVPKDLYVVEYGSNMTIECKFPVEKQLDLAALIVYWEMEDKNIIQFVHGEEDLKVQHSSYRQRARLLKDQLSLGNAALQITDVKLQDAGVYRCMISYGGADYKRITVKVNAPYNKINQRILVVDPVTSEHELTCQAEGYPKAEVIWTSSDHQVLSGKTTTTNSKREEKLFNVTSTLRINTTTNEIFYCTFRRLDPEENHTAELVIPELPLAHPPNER
Experiment: flow cytometry on RKO cells (PD-L1 on the cell surface), PE-labelled secondary antibody, MFI
Measure name: EC50 (read off the curve)

Query string: Which EC50 (read off the curve) value belongs to Clone C (antibody, V domains shown, Mouse hybridoma clone) VH: EVQLQQSGADLVKPGASVKLSCTASGFNIKDTYMHWVKQRPEQGLEWIGRIDPANGNTKYDPKFQGKATITTDTSSNTAYLQLSSLTSEDTAVYYCARGLGRWFAYWGQGTLVTVSA VL: DIVMTQSHKFMSTSVGDRVSITCKASQDVSNAVAWYQQKPGQSPELLIYSASNRYTGVPDRFTGSGSGTDFTFTISSVQAEDLAVYYCQQHDSTPLTFGAGTKLELK ?
Result string: ~0.02 µg/mL
